- Subject of test: T1, NHERF3_4, Q5T2W1
- T1 sequence (Q5T2W1 373-468, limits assumed, looked up): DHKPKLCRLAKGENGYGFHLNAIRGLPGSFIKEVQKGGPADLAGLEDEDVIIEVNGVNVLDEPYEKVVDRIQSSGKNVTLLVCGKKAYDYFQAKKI
- Protocol details: holdup assay
- Parameters: key: below the threshold = too weak to quantify, mostly under pKd 3.1 to 4
- Test parameters: plain residues with an end cap or a label only (N-terminal biotin on a linker: ttds)
Readout label: pKd

> print(dat)
                        binder      observed.result
1  VLRLQSETSV [VANGL1, Q8TAA9]  below the threshold
2   RSLEEEESQL [GRASP, Q7Z6J2]  below the threshold
3  TVASEKESVM [SLC1A5, Q15758]  below the threshold

Source listed as paper PMC9482650.
